- Assay Info: Induction of cell proliferation in osteoblasts (unknown origin) at 100 uM after 48 hrs by MTT assay relative to untreated control
- Type: functional, Osteoblast
Property Name: Activity

Would you mind telling me what Activity value was observed for `COC1=CC(=O)C=C2CCCCCCC[C@@H](C)OC(=O)[C@@]21O` ?
-68.32%

Also `COc1cc(O)cc2c1C(=O)O[C@H](C)CCC(=O)CCCC2` ?
3.28%

Also `COC1=CC(=O)C=C2CCCCC(=O)CC[C@@H](C)OC(=O)[C@@]21O` ?
19.62%

Also `COc1cc(O)cc2c1C(=O)O[C@H](C)CC[C@@H](O)CCCC2` ?
2.1%

Also [F-].[Na+] [SODIUM FLUORIDE] ?
22.54%

Also `COc1cc(O)cc2c1C(=O)O[C@H](C)CCCCCCC2` ?
51.55%

Also `COC1=CC(=O)C=C2CCCC(=O)CCC[C@@H](C)OC(=O)[C@@]21O` ?
2.61%

Also `C[C@@H]1CCCCCCCc2cc(O)cc(O)c2C(=O)O1` ?
19.48%

====

Can you tell me Activity for the items I'm about to list?
- Assay Info: Induction of cell proliferation in osteoblasts (unknown origin) at 10 uM after 48 hrs by MTT assay relative to untreated control
- Type: functional, Osteoblast
Give the value, in units of %, as a plain number.

Would you mind telling me what Activity value was observed for `COc1cc(O)cc2c1C(=O)O[C@H](C)CC[C@@H](O)CCCC2` ?
-6.67

Also `COc1cc(O)cc2c1C(=O)O[C@H](C)CCCCCCC2` ?
14.19

Also `C[C@@H]1CCCCCCCc2cc(O)cc(O)c2C(=O)O1` ?
-4.54

Also `COc1cc(O)cc2c1C(=O)O[C@H](C)CCC(=O)CCCC2` ?
-4.29

Also `COC1=CC(=O)C=C2CCCCC(=O)CC[C@@H](C)OC(=O)[C@@]21O` ?
10.92

Also `COC1=CC(=O)C=C2CCCC(=O)CCC[C@@H](C)OC(=O)[C@@]21O` ?
8.94

Also [F-].[Na+] [SODIUM FLUORIDE] ?
18.76

Also `COC1=CC(=O)C=C2CCCCCCC[C@@H](C)OC(=O)[C@@]21O` ?
-43.92
